- assay target: hERG (KCNH2) (Homo sapiens, UniProt Q12809)
- Sequence (Q12809 whole entry): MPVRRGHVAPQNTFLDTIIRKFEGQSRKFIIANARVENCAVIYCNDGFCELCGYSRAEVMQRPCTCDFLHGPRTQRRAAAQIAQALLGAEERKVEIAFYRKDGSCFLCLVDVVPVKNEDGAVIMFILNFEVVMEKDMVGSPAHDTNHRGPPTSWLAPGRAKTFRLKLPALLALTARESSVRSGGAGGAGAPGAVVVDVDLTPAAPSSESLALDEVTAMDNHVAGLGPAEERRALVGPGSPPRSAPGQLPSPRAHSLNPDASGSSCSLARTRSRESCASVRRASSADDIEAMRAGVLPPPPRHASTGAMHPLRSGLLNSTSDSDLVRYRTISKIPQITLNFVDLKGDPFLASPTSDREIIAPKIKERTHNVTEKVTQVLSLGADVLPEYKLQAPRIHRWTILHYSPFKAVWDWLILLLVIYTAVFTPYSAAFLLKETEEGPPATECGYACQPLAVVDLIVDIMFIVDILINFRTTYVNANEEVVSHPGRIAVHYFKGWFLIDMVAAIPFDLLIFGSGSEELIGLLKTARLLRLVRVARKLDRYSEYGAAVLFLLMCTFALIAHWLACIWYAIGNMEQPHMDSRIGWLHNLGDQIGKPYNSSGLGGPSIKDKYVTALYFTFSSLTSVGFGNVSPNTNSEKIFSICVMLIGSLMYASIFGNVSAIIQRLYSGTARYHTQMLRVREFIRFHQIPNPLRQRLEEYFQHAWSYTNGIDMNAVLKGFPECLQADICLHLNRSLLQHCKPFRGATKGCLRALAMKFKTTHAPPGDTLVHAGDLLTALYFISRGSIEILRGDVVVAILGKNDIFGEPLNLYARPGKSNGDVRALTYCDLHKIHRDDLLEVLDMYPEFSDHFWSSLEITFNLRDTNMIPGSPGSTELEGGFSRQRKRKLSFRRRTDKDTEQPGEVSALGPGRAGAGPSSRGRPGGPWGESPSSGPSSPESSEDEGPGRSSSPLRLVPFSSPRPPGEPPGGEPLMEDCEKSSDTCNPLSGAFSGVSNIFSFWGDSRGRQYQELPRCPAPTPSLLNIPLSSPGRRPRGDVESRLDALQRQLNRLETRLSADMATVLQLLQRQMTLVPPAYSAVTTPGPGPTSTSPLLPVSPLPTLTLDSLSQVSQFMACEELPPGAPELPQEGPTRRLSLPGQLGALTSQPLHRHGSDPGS
- protocol summary: Inhibition of hERG in Xenopus laevis Oocytes upto 30 uM incubated for 10 mins by patch-clamp method relative to control
- Assay type: cell-based, Oocyte
- condition summary: Xenopus laevis oocytes expressing hERG
metric name: inhibition at 10 min, up to 30 µM (%)
Your answer is read as %, so omit the unit and give the number.

Bench note: what inhibition at 10 min, up to 30 µM did O=S(=O)(c1ccc(F)cc1)N1CCN(c2ncccn2)CC1 show?
9.63

----------
- protocol summary: Metabolic stability in human liver microsomes assessed as parent compound remaining preincubated for 5 mins followed by NADPH addition and measured upto 60 mins by HPLC-MS/MS analysis
- Assay type: ADME, Microsome
- condition summary: time < 65 min, read-out: Stability
metric name: remaining at 1 h (%)
Your answer is read as %, so omit the unit and give the number.

Bench note: what remaining at 1 h did CCNc1nc(C)cc(N2CCN(C(=O)c3ccc([N+](=O)[O-])cc3)CC2)n1 show?
100

----------
- Test system: Chikungunya virus
- protocol summary: Antiviral activity against Chikungunya virus infected in African green monkey Vero cells assessed as reduction in viral induced cell death incubated for 5 days by MTS reagent based absorbance method
- Type: functional, organism-based
- condition summary: 120 h
Reported EC50 values follow for various compounds

Some solved entries appear below for comparison.
Bench note: what EC50 did CCNc1cc(C)nc(N2CC(NC(=O)c3cc(Cl)cc(Cl)c3)C2)n1 show?
> 88 µM

What about this compound? CCNc1nc(C)cc(N2CCCC(NC(=O)c3cc(Cl)cc(Cl)c3)C2)n1 (centres undefined)
> 100 µM

What about this compound? CCNc1cc(C(F)(F)F)nc(N2CCN(C(=O)c3cc(Cl)cc(Cl)c3)CC2)n1
> 6.3 µM

Then there is this compound:
Bench note: what EC50 did CCNc1nc(N2CCN(C(=O)c3ccc(Br)cc3)CC2)cc(C(F)(F)F)n1 show?
> 100 µM

----------
- protocol summary: Metabolic stability in human liver microsomes assessed as half-life preincubated for 5 mins followed by NADPH addition and measured upto 60 mins by HPLC-MS/MS analysis
- Assay type: ADME, Microsome
- condition summary: time < 65 min
metric name: half-life

Some solved entries appear below for comparison.
Bench note: what half-life did CCNc1nc(C)cc(N2CCN(C(=O)c3cccc([N+](=O)[O-])c3)CC2)n1 show?
> 1 h

What about this compound? CCNc1cc(C(F)(F)F)nc(N2CCN(C(=O)c3cc(Cl)cc(Cl)c3)CC2)n1
0.3 h

---
Bench note: what half-life did Cc1cc(N2CCN(C(=O)c3ccc(Cl)cc3)CC2)nc(NC(C)C)n1 show?
> 1 h

----------
- protocol summary: Cytotoxicity against African green monkey Vero cells assessed as reduction in overall metabolic activity incubated for 5 days by MTS reagent based absorbance method
- Assay type: toxicity, cell-based
- condition summary: chlorocebus sabaeus, time 5 day
metric name: CC50 at 120 h (µM)
Your answer is read as µM, so omit the unit and give the number.

Some solved entries appear below for comparison.
Bench note: what CC50 at 120 h did CCNc1nc(C)cc(N2CC3CN(C(=O)c4ccc(Cl)cc4)CC3C2)n1 (stereo unspecified) show?
72

What about this molecule? CCNc1cc(C)nc(N2CCC3(CCN(C(=O)c4ccc(Cl)cc4)C3)C2)n1 (stereo unspecified)
74

What about this molecule? CCNc1ccnc(N2CCN(S(=O)(=O)c3ccc(Cl)cc3)CC2)n1
28

What about this molecule? CCNc1nc(C)cc(N2CCN(C(=O)c3ccc(Cl)cc3Cl)CC2)n1
47

What about this molecule? CCNc1nc(C)cc(N2CC3CCC(C2)N3C(=O)c2ccc(Cl)cc2)n1
84

What about this molecule? CCNc1ccnc(N2CCN(C(=O)c3ccc(Cl)cc3)CC2)n1
47

What about this molecule? Cc1cc(N2CCN(S(=O)(=O)c3ccc(F)cc3)CC2)nc(N2CCCC2)n1
47

What about this molecule? CCNc1cc(C)nc(N2CCN(S(=O)(=O)c3ccc(Cl)nc3)CC2)n1
97

Then there is this molecule:
Bench note: what CC50 at 120 h did CCNc1nc(C)cc(N2CCCC(NC(=O)c3cc(Cl)cc(Cl)c3)C2)n1 (stereo unspecified) show?
12
